# SYSTEM NAME: Antigen-presenting glycoprotein CD1d (Mus musculus) (UniProt P11609+P11610)
# METHOD NOTES: Binding affinity to CD1d in C57BL/6 mouse HMNC cells assessed as iNKT cells stimulation by measuring increase in IL-2 production at 25 nM incubated for 72 hrs by ELISA
# Assay type: cell-based
Calls of active or inactive are those of the source. The rule behind the calls is not given here.

# STRUCTURE, Activity
records = [
    ("CCCCCCCCCCCCCC[C@@H](O)[C@@H](O)[C@H](CO[C@H]1O[C@H](CO)[C@H](O)[C@H](O)[C@H]1O)NC(=O)CCCCCCCCCCCCCCCCC(=O)CF", "Active"),
    ("CCCCCCCCCCCCCC[C@@H](O)[C@@H](O)[C@H](CO[C@H]1O[C@H](CO)[C@H](O)[C@H](O)[C@H]1O)NC(=O)CCCCCCCCCCCCCCCCCCCC(=O)CF", "Active"),
    ("CCCCCCCCCCCCCC[C@@H](O)[C@@H](O)[C@H](CO[C@H]1O[C@H](CO)[C@H](O)[C@H](O)[C@H]1O)NC(=O)CCCCCCCCCCCCCCCCCC(=O)CF", "Active"),
]
